experiment: Absorption spectroscopy (UV/Vis); type: physicochemical; details: in aq. PBS, pH 7.4
Where a name gives a salt, the structure may show the parent alone.
value type: Absorption max.

Ask: Supply reported Absorption max. belonging to this compound: C=CCOP(=O)(C1=c2cc3c(cc2C(C)(C)c2cc4c(cc21)CCCN4CCOC)=[N+](CCOC)CCC3)N(C(C)C)C(C)C (stereo not drawn) [Compound 26, trifluoroacetate]
Result: 734 nm

Ask: Tell me its Absorption max. given C=CCOC(=O)CCCOP(=O)(OC)[c+]1c2ccc(N(C)C)cc2oc2cc(N(C)C)ccc21 (stereo not drawn) as the entry.
Result: 632 nm

Ask: Name the recorded Absorption max. of the compound listed here: CN(C)c1ccc2c(P(=O)([O-])CCC(=O)O)c3ccc(=[N+](C)C)cc-3oc2c1
Result: 598 nm
